The reported numbers originate from the supplement of paper PMC9170038.

Answer each item with its documented apparent KD of K4 kissing-loop reporter.
- Test system: K4 kissing-loop RNA reporter;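 further: bound reporter read as fluorescence of individual clusters on recovered sequencing chips by microscopy, with normalized cluster intensities fitted with a binding model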
- procedure-text: apparent KD of K4 kissing-loop reporter; higher = weaker reporter binding
- assay-context: Eterna round: R107; input ligand: arginine 13.2 mM
One number for each entry, in nM.

AGUGAUAUAUGAGGAUAUGGGUUGGUUAAUGAGUUAGUUUUAGUGUUGUUUGGUUAGUGAUGUUAUUUAGAAGGCGUGAGUGAUG [sffdsmullin]: 88.3
GGGCGCGGCGCGGCCGCCACUGGGCCUGGGCGCUCGCUGAGUGAUGUUCGUCGGCGGCUGGGUCGUAGGACCGGGUGCCGGCUGG [BDazzled - #4 SS Tryptophan B]: 533
UGUCAUUGGUCGGCCGCCACUUCAUAAAGAGUGAUGUUCUAAAAGACGGAUCGAAAGAUCUGUCGAAGGACCGGGACCGAUGACU [TrypBS 18 #SwitchBubble #StaticStem]: 641
AAAAUAAACCAGUGAUGUUGGUGUCUGGAUACCAGCGACGAAAGUCGCCCUUGGCAGCUACGGACGUACAAAAUAAGUACGUCCU [MatMod 8 - Jieux - Same State - Theophylline A]: 487
AGCAGUGAUGUUGCAUUUAUAAAGACCGAUACCAGUAUCGAUAGAUACCCUUGGCAGCGGAUUUCCGCAACGACUAGGAAACUAG [Ex Theophylline A K4 13]: 423

Parameters: items (list). Returns: apparent KD of K4 kissing-loop reporter for each item.
1. GCACUGAAGUGAUGUUUUUGUGCACGUUGAAAGGAUAUCUGCUUGUAGAGAAGGUUCUGUUUGUGCGGAGCGGGCGUUACCGGCA [theeternabot_exclusion_KL_FMN_A_32]
2. UCGGGCGGCUGAAGGAGCGGGCGGGCCCGAGUGAUGUUCGGGUGGGCCGUGAGGCCCGGAGCCCAGGUAGGUCGCGGUUCCGCCC [#2 Same State - Arginine B Attempt #23 (HarryS)]
3. GUGCGGCUAGUGAUGUUGGUUGUGUGGGAAGGAGCGCAGAUACAUGCAGGUAGGUCGCCCACACCUCUGAAAGGAGGCUAAUUCA [KL-SSArg-A15]
4. AGAGUUGACGAAAAGUCAACUCUACGAGAAGGAGCGCACGAAAGUGCAGGUAGGUCGCUCAGUCCAGUGAUGUUGGAACAUAAAA [#OpenEnded 8]
5. AGGUCCGAGCCUGUAAAGGCUCGGACCUGUUAGGAUAUGACGUUAUUCAGAAGGGAUGGGUGGAGUGAUGUUCCACCCGCAAGGG [#2 Same State - FMN A Attempt #5 (HarryS)]
6. GUAUCAGUGAUGUUGAUAGGCGAGCGGGAUACCAGCCAAGACUCAGGCCCUUGGCAGCCCACAUAUCCCACGUAGAUAGUAGCUC [Same State - Theophylline A (Freestyle 16)]

Key:
[269, 153, 330, 101, 103, 105]

----------
- Tested on: MS2 coat protein
- procedure-text: apparent KD of MS2 coat protein, switch OFF state (with FMN for OFF switches, without FMN for ON switches); designed switch direction (-1 OFF switch, 1 ON switch): 1; higher = weaker reporter binding
- assay-context: FMN input: 0 or 200 uM; Eterna round: R93 (includes R88 designs)
Would you mind labelling by apparent KD of MS2 coat protein? At or over 60 nM is True, under is False.

These recorded examples may help you get a feel for the data.
UUAAAACAUGAGGAUCACCCAUGUAGAAAUAUGGGAGGAUAUACGAAGACGAAAGUCAAAGUAGAAGGCCUAAAUU [Mat - Same State 1 - Eli mod - D112]: True
AGGAAACAUGAGGAUCACCCAUGUAAAAAUAUGGGAGGAUAUACAAACAAGAAAGUCAGAGUAGAAGGCCUAAAAG [Garnet 7]: True
GGGCAAGAGAGAGAGGAUAUCCAAAGGAAAACAUGAGGAUCACCCAUGUAGAAGGUAGGAAAUUGGGAGAAGGCUCAAGAGAGAG [salish99-ss2-137]: False

Exercise: Say whether AAAAAAAAAACUCAGGAUAUAGAUCGUUGAACAUGAGGAUCACCCAUGUAGUGAAAAGCGAAAAACUAGAAGGGAGGAAAAAAAAA [SameState2-02] shows apparent KD of MS2 coat protein of 60 nM or more.
Key: False

Exercise: Say whether UGGAGACAUGAGGAUCACCCAUGUGAGAAGAGGCGAGGAUAUCGAAAGAAAGAAGAGAAACGAGAAGGCGCGAGUC [salish99-SS1-046] shows apparent KD of MS2 coat protein of 60 nM or more.
Key: False

Exercise: Say whether GUAGACAUAGUUCAGGAUAUAGGAAUAGUCACAUGAGGAUCACCCAUGUGCAUUUAUAUGCGCACUUAGAAGGGAGGUAGUUAAC [Mat - Same state - Malcolm Mod - D121] shows apparent KD of MS2 coat protein of 60 nM or more.
Key: False

Exercise: Say whether AUAAUAUUAAGCAAGGAUAUACUAAAGUAAACAUGAGGAUCACCCAUGUGAAAAAAAAAACUCAUGUAGAAGGUGCAUAAAUAAA [moonwalk 11] shows apparent KD of MS2 coat protein of 60 nM or more.
Key: False

----------
- Tested on: MS2 coat protein
- procedure-text: apparent KD of MS2 coat protein; higher = weaker reporter binding
- assay-context: Eterna round: R107; input ligand: theophylline 20 uM
Answer each item with its documented apparent KD of MS2 coat protein.
Answers are plain numbers, in nM.

ACAUGAGGAUCACCCAUGUGGAGCAGGGUACGAGGACCGGUACGGCCGCCACUCGAGCGUUAUGACGAGUGAAUGGCAACGAUGU [whbob_X-Trypto_A_V1.0]: 15.9
GGUUGAAACUGAAGGAGCGAGAUGACAACAUUGGGUCUAACAUGAGGAUCACCCAUGUAAUCUCAGGUAGGUCGCAGUGACCAAA [Exclusion Arginine B GF 14]: 41.5
CGAGUCCGCUGAUGGGCUAAGUCAGGUGAUACCAGCCACUCCCGCGGCCCUUGGCAGCACAUGAGGAUCACCCAUGUAGGGCUUG [Iserbele]: 51.1
ACCUGUACGAAAAGUGCAGGACACGAAUAACGAGGACCGGUACGGCCGCCACUCGGAAAAUAACCUGAGGAUCACCCUGGUCGUG [TrypAS 7 #AlternativeMS2 #Zipper #StaticStem]: 37.5

Parameters: items (list). Returns: apparent KD of MS2 coat protein for each item.
1. GGAGUCGGCACGGCCGCCACUGCGGUGGUGUGACAUGAGGAUCACCCAUGUUGUCAUGCGGCCCUUAGGACCGGGUGGCGGUUCC [#1 Exclusion - Tryptophan B Attempt #22 (HarryS)]
2. UCGUGUAUAUCGGAUACCAGUGAAAUCGAUACAUGAGGAUCACCCAUGUGAGAGGAUGUACACCCUUGGCAGCUGUAUAUAUCUA
3. GCUACAUGAGGAUCACCCAUGUAUGCGAGCCGAGGACCGGUACGGCCGCCACUCGCUUAACAUGAGGAUCACCCAUGUUUCUCGG [SSTA DOUBLE!!! :-D #16]

Key:
1. 76.1
2. 28.5
3. 193

Parameters: items (list). Returns: apparent KD of MS2 coat protein for each item.
1. AAUACCGGAUCGGCCGCCACUGGUUGGCCCUGUGUACAUGAGGAUCACCCAUGUCCAUCCCAAACCAGGACCGGGAUCUUUGUGC [Ededmate]
2. AACAUGAGGAUCACCCAUGUGUCCUCGAAACGAGGACCGGUACGGCCGCCACUCGAAUAAGCUGUUGACGAAAAGUCAGCAGCAA [Mat - Exclusion - Trytophan A - D19]
3. AUACAUGAGGAUCACCCAUGUAUAGAUGAAGGAGCGACCAGAGGGUCAGGUAGGUCGCAUCACAUGAGGAUCACCCAUGUAUUUU [DOUBLE!!! :-D #10]
4. AUAAUGGGUUUCGGACUAUCAUGGAAUGAUACCAGAUACUUAGAAAUCCCUUGGCAGCAUGAGGACAUGAGGAUCACCCAUGUAU [Th A Ex t1]
5. ACUCGGUAUGUCUAAUACCGAGAGUAUGAUACCAGUAUGGUGACAUACCCUUGGCAGCAUGGGACAUGAGGAUCACCCAUGUGUU [SSThA NP+V+V2 #10 Same Structure]
6. GAUGAACUAUAUGAUACCAGACAACAUGAGGAUCACCCAUGUGUAUGUCGUCCUCUGCCUGUCCCUUGGCAGCGUAUAGUUUAUC [XTheo B #17]
7. AUUGACAUGAGGAUCACCCAUGUAUCCGAAGGAGCGGCAGAUGUGCCAGGUAGGUCGCGGGUGAAAGAGACAUCGUAGGGUGUCG [Same State - Arginine A / B [only NuPack]]

Key:
1. 15.8
2. 327
3. 67.8
4. 78.9
5. 465
6. 70.1
7. 207

Parameters: items (list). Returns: apparent KD of MS2 coat protein for each item.
1. UCGGGCAUAGCGGCCGCCACUGUUUGGCGUGCGGAUGACGGAACAUGAGGAUCACCCAUGUUGUUUAGGACCGGGCUUGCGUCGU [zyzmullin]
2. CGUUGGUGUGGAGACAUAUUGAUGACUGAAGGAGCGGGAAUAAACCCAGGUAGGUCGCAGAGAUCCACAUGAGGAUCACCCAUGU [!0.R]
3. AUAACAUGAGGAUCACCCAUGUUGAGUGAUACCAGACUAUGUAAUGUCCCUUGGCAGCACAAGUAAAGUUAUAAAUAAUGAUAGA [#12 SameState-TheophyllineA]
4. AUAUGAUCAUGUGAUACCAGAAAUGGUAGUCUUCACUGGAUUACAUGAGGAUCACCCAUGUUCCCUUGGCAGCAUAUGAUCAUAU [#03 Exclusion-TheophyllineB]
5. UCGGUGCUCUACAUGAGGAUCACCCAUGUCCGAGGACCGGUACGGCCGCCACUCGCAAUCAAACAGACGUGGGCCAACUUUGCGU [Tiribeesqu]

Key:
1: 17.8; 2: 74.9; 3: 55.1; 4: 68.2; 5: 12.1

Parameters: items (list). Returns: apparent KD of MS2 coat protein for each item.
1. CGAAUACGAAUUGAUACCAGCAUGUUAACAUGAGGAUCACCCAUGUUAAGGAUAACAUAAUGCCCUUGGCAGCAACGUAAAUUCG [Ab]
2. AGUGUUAUAACUGAUACCAGACUCUCAUGUUUACAUGAGGAUCACCCAUGUUAUUUCUUUGUCCCUUGGCAGCAGAAUUAACACA [JR_SSTheophyB_Sub010]
3. UGUAUGUGAUCUGAUACCAGCUUUGAUAACCUGAGGAUCACCCUGGUAAGGCGAAAGCCAAGCCCUUGGCAGCAGAUCGCAUACU
4. CGGCCCUCACCUGAGGAACACCCAGGUGAUACCAGCCUGGAAACAGGCCCUUGGCAGCACCAGGUCAUCAAAGAUGACCAAGCCG [TheoAX 24 #SwitchBubble #AlternativeMS2]

Key:
17.7
175
34.5
28.7
